Assay: qHTS screen for small molecules that induce genotoxicity in human embryonic kidney (HEK293T) cells expressing luciferase-tagged ELG1; further: nearly all actives have a fitted effect of over 60% in size
Conditions: HEK293T ELG1-luciferase reporter, luminescence, 16 h; series mostly up to 46 µM
In all, about 330,000 compounds went through this assay and about 4,200 (1.3%) were called active. Another 6% or so got no clear call; they are omitted. The call rests on the fitted dose curve; in most records, active means well fitted activation curve with a large enough effect; inconclusive means small, poorly fitted or top-dose-only effect; inactive means no such curve, though single readings can be large or run the other way. Only a selection was taken, and actives are over-represented in it overall.
Possible outcomes: y for active, n for inactive

COMPOUND | CLASS
CC(=O)Nc1ccc(/C=N/NC(=O)c2cccs2)cc1 | y
COc1ccc(CNC(=O)COc2ccccc2C(=O)c2cnn(-c3ccccc3)c2)cc1OC | n
COc1ccc(-c2noc(CNC(=O)C(C)Oc3ccccc3)n2)cc1 (stereo not drawn) | n
COCCn1c(C)cc(C(=O)CN2c3cccc4cccc(c34)S2(=O)=O)c1C | n
CCN(CC)c1ccc(/C=N/NC(=O)CNC(=O)c2cccs2)cc1 | n
O=C(NN=Cc1ccc(N2CCOCC2)cc1)c1cc2ccccc2cc1O | n
O=C(c1cnn(-c2ccc(Cl)cc2)c1)c1ccccc1O | y
COc1ccc(S(=O)(=O)N(C)C)cc1NC(=O)CSc1ncccn1 | n
COc1ccc(COC(=O)c2n[nH]c3ccccc23)cc1F | y
O=C(COc1ccc(Br)cc1F)NCC1(N2CCCCC2)CCCCC1 | n
O=C(COC(=O)c1n[nH]c2ccccc12)NCc1ccccc1 | n
COc1ccc(C2=Nn3c(nnc3-c3ccccc3OC)SC2)cc1OC1CCCC1 | n
CC(NC(=O)COC(=O)Cn1cc(C(F)(F)F)ccc1=O)c1ccccc1 (stereo not drawn) | n
COc1ccc(NS(=O)(=O)c2cc(NC(=O)c3ccc(S(=O)(=O)N(C)C)cc3)ccc2N2CCOCC2)cc1 | n
C=CCSc1nnc(NC(=O)c2ccc(NC(C)=O)cc2)s1 | n
CCOc1ccccc1-c1cc(C(=O)N2CCOCC2)c2ccccc2n1 | n
O=C(CSC(=S)N1CCOCC1)c1ccccc1 | y
Cc1ccc(O)c(NC(=O)c2cc(-c3ccco3)on2)c1 | y
CC(=O)c1ccc(S(=O)(=O)N2CCN(C(=O)/C=C/c3ccc4ccccc4n3)CC2)cc1 | n
COc1cccc(/C=C/c2ccc3ccccc3n2)c1OC(C)=O | y
COc1cccc(/C=C2\C=C(c3ccc(C)cc3)OC2=O)c1OC(C)=O | n
Cc1ccc(C(=O)OCc2nc(N)nc(Nc3ccccc3C)n2)cc1 | n
O=C(Nc1cccnc1)c1noc2c1CCCCC2 | y

----------
Test: qHTS screen for small molecules that induce genotoxicity in human embryonic kidney (HEK293T) cells expressing luciferase-tagged ELG1; further: nearly all actives have a fitted effect of over 60% in size
Conditions: HEK293T ELG1-luciferase reporter, luminescence, 16 h; series mostly up to 46 µM
Hit rate of the full screen: of about 330,000 compounds, about 4,200 (1.3%) were called active. Roughly 6% stayed inconclusive and do not appear here. Calls come from the whole dose curve; as a rule, active = well fitted activation curve with a large enough effect; inconclusive = small, poorly fitted or top-dose-only effect; inactive = no such curve, though single readings can be large or run the other way. The full list was thinned out, with actives kept by preference.
Outcome codes: Yes (active), No (inactive)

MOLECULE | CLASS
O=C1CC2(CCCC2)C(=O)N1CN1CCN(S(=O)(=O)c2ccc(F)cc2F)CC1 | No
COc1cc2ccccc2cc1C(=O)Nc1ccc(NC(=O)c2cccs2)cc1 | No
COc1ccc(OC)c(-c2csc(-c3cccs3)n2)c1 | No
COC(=O)C1CCN(C(=O)COC(=O)c2cc(S(=O)(=O)N3CCOCC3)ccc2C)CC1 | No
COc1cc(/C=N/Nc2nn3cnnc3c3ccccc23)cc(OC)c1OC | No
CCCN(CC1CC1)C(=O)COC(=O)c1ccc(C)cc1O | No
COc1ccc(C2CC(c3cccs3)=Nc3ccccc3S2)cc1OC (configuration not stated) | No
O=C(CSc1ncnc2sccc12)NC1CCS(=O)(=O)C1 (configuration not stated) | No
FC(F)(F)c1nc2ccccc2nc1N/N=C/c1ccc(Cl)cc1 | No
Cc1ccc2nc(NC3=NCN(CCc4ccccc4)CN3)nc(C)c2c1 | No
COc1cc2ccccc2cc1C(=O)Nc1ccc(N2CCOCC2)cc1 | No
COc1cc2ccccc2cc1C(=O)Nc1ccncc1 | Yes
CCOC(=O)CCCCCC(=O)Nc1ccc2c(c1)CC(=O)N([C@@H](C)CO)C[C@H](C)[C@@H](CN(C)Cc1ccccc1)O2 | No
c1ccc(CCN2CN=C(Nc3nc4ccccc4o3)NC2)cc1 | Yes
COc1ccc(-n2nnnc2CNC(=O)c2ccc3ccccc3c2)cc1 | No
N#CNC1=NCN(CCc2ccccc2)CN1 | No
COC(=O)c1cc(OC)c(OC)cc1NC(=O)CSc1ccc(C)cc1 | No
O=C(Nc1cc(S(=O)(=O)N2CCOCC2)ccc1N1CCOCC1)c1c(F)cccc1Cl | No
COc1ccc(-c2csc(-c3cccs3)n2)cc1OC | Yes
CC(C)(C)OC(=O)C[C@@H]1C/C=C\C[C@@H](CC(=O)NCCO)C(=O)N[C@H](Cc2c[nH]c3ccccc23)COC1=O | No
COc1ccc(-n2nnnc2-c2nc3ccccc3s2)cc1 | Yes
COc1cc(/C=C/C(=O)Nc2ccc(OC)c(S(=O)(=O)N3CCOCC3)c2)ccc1OCC#N | No
